assay: Organ distribution of regorafenib in rats with or without RT; type: in vivo, Sprague-Dawley rats; settings: male, Sprague-Dawley, rat, brain, oral, 16 mg/kg, rat, 4 h after oral administration; RT9 Gy × 3 f'x with regorafenib 16 mg/kg × 3 d (concurrent); read-out: Concentration in brain

compound	concentration at 4 h, ng/g
CNC(=O)c1cc(Oc2ccc(NC(=O)Nc3ccc(Cl)c(C(F)(F)F)c3)c(F)c2)ccn1 [regorafenib, Regorafenib]	10

====

assay: Organ distribution of regorafenib in rats with or without RT; format: in vivo, Sprague-Dawley rats; settings: male, Sprague-Dawley, rat, lung, po, 16 mg/kg, rat, 4 h after oral administration; 16 mg/kg p.o. × 1 d, no RT; read-out: Concentration in lung

compound	concentration at 4 h (ng/g)
CNC(=O)c1cc(Oc2ccc(NC(=O)Nc3ccc(Cl)c(C(F)(F)F)c3)c(F)c2)ccn1 [regorafenib, Regorafenib]	470

====

assay: Pharmacokinetics of regorafenib in plasma of freely moving rats with or without RT (HPLC-UV); assay type: in vivo, Sprague-Dawley rats; conditions: male, Sprague-Dawley, rat, plasma, po, 16 mg/kg, rat plasma; RT2 Gy × 1 f'x followed by regorafenib 16 mg/kg p.o. × 1 d (sequential); read-out: t½
observable: half-life (h)

molecule	endpoint result
CNC(=O)c1cc(Oc2ccc(NC(=O)Nc3ccc(Cl)c(C(F)(F)F)c3)c(F)c2)ccn1 [regorafenib, Regorafenib]	5.77

====

experiment: Pharmacokinetics of regorafenib in plasma of freely moving rats with or without RT (HPLC-UV); assay type: in vivo, Sprague-Dawley rats; settings: male, Sprague-Dawley, rat, plasma, po, 16 mg/kg, rat plasma; RT2 Gy × 3 f'x with regorafenib 16 mg/kg p.o. × 3 d (concurrent)
observable: Tmax (h)

smiles string	observable	endpoint result
CNC(=O)c1cc(Oc2ccc(NC(=O)Nc3ccc(Cl)c(C(F)(F)F)c3)c(F)c2)ccn1	Tmax	2.08

====

experiment: Organ distribution of regorafenib in rats with or without RT; format: in vivo, Sprague-Dawley rats; conditions: male, Sprague-Dawley, rat, kidney, oral, 16 mg/kg, rat, 4 h after oral administration; RT9 Gy × 3 f'x followed by regorafenib 16 mg/kg × 3 d (sequential); read-out: Concentration in kidneys

smiles string	units label	concentration at 4 h
CNC(=O)c1cc(Oc2ccc(NC(=O)Nc3ccc(Cl)c(C(F)(F)F)c3)c(F)c2)ccn1	ng/g	400

====

test: Pharmacokinetics of regorafenib in plasma of freely moving rats with or without RT (HPLC-UV); assay type: in vivo, Sprague-Dawley rats; settings: male, Sprague-Dawley, rat, plasma, po, 16 mg/kg, rat plasma; RT2 Gy × 3 f'x followed by regorafenib 16 mg/kg p.o. × 3 d (sequential); read-out: t½

molecule	half-life [h]
CNC(=O)c1cc(Oc2ccc(NC(=O)Nc3ccc(Cl)c(C(F)(F)F)c3)c(F)c2)ccn1 [regorafenib, Regorafenib]	15.3

====

Assay: Pharmacokinetics of regorafenib in plasma of freely moving rats with or without RT (HPLC-UV)
Type: in vivo, Sprague-Dawley rats
Conditions: male, Sprague-Dawley, rat, plasma, po, 16 mg/kg, rat plasma; RT9 Gy × 3 f'x with regorafenib 16 mg/kg p.o. × 3 d (concurrent); read-out: t½
Text: The Institutional Animal Experimentation Committee of National Yang-Ming University, Taipei, Taiwan, and the Institutional Animal Care and Use Committee (IACUC, approval number 1070523) reviewed and approved the protocol. […] According to the formula used to translate doses from animal to human, human equivalent dose (HED, mg/kg) = animal dose (mg/kg) × animal km/human km, we calculated the daily dose of regorafenib for rats to be 16 (mg/kg/day). […]
observable: half-life (h)

smiles string	observable	endpoint result
CNC(=O)c1cc(Oc2ccc(NC(=O)Nc3ccc(Cl)c(C(F)(F)F)c3)c(F)c2)ccn1	half-life	11

====

assay: Organ distribution of regorafenib in rats with or without RT; type: in vivo, Sprague-Dawley rats; details: male, Sprague-Dawley, rat, liver, po, 16 mg/kg, rat, 4 h after oral administration; 16 mg/kg p.o. × 3 d, no RT; read-out: Concentration in liver
observable: concentration at 4 h (ng/g)

compound	endpoint result
CNC(=O)c1cc(Oc2ccc(NC(=O)Nc3ccc(Cl)c(C(F)(F)F)c3)c(F)c2)ccn1 [regorafenib, Regorafenib]	1450

====

Assay: Organ distribution of regorafenib in rats with or without RT
Type: in vivo, Sprague-Dawley rats
Details: male, Sprague-Dawley, rat, kidney, po, 16 mg/kg, rat, 4 h after oral administration; 16 mg/kg p.o. × 3 d, no RT; read-out: Concentration in kidneys
Experimental: According to the formula used to translate doses from animal to human, human equivalent dose (HED, mg/kg) = animal dose (mg/kg) × animal km/human km, we calculated the daily dose of regorafenib for rats to be 16 (mg/kg/day). The rats were randomly divided into ten groups with six rats in each group. […] The organ samples were homogenized in 50% aqueous acetonitrile (sample weight: volume = 1:5) and centrifuged at 13,000× g, for 10 min, at 4 °C. […] Finally, the filtrate (20 μL) was analyzed by HPLC.

smiles string	concentration at 4 h
CNC(=O)c1cc(Oc2ccc(NC(=O)Nc3ccc(Cl)c(C(F)(F)F)c3)c(F)c2)ccn1	650 ng/g

====

assay: Organ distribution of regorafenib in rats with or without RT; assay type: in vivo, Sprague-Dawley rats; conditions: male, Sprague-Dawley, rat, brain, oral, 16 mg/kg, rat, 4 h after oral administration; RT9 Gy × 1 f'x followed by regorafenib 16 mg/kg × 1 d (sequential); read-out: Concentration in brain

compound	concentration at 4 h [ng/g]
CNC(=O)c1cc(Oc2ccc(NC(=O)Nc3ccc(Cl)c(C(F)(F)F)c3)c(F)c2)ccn1 [regorafenib, Regorafenib]	60

====

test: Organ distribution of regorafenib in rats with or without RT; assay type: in vivo, Sprague-Dawley rats; conditions: Sprague-Dawley, rat, kidney, oral, 16 mg/kg, rat, 4 h after oral administration; RT2 Gy × 1 f'x followed by regorafenib 16 mg/kg × 1 d (sequential); read-out: Concentration in kidneys

molecule	concentration at 4 h
CNC(=O)c1cc(Oc2ccc(NC(=O)Nc3ccc(Cl)c(C(F)(F)F)c3)c(F)c2)ccn1 [regorafenib, Regorafenib]	590 ng/g

====

experiment: Organ distribution of regorafenib in rats with or without RT; assay type: in vivo, Sprague-Dawley rats; details: Sprague-Dawley, rat, heart, oral, 16 mg/kg, rat, 4 h after oral administration; RT9 Gy × 1 f'x with regorafenib 16 mg/kg × 1 d (concurrent); read-out: Concentration in heart

smiles string	concentration at 4 h
CNC(=O)c1cc(Oc2ccc(NC(=O)Nc3ccc(Cl)c(C(F)(F)F)c3)c(F)c2)ccn1	360 ng/g

====

system: Huh-7 cells; assay: Cell viability assay (MTT), Huh-7; assay type: cell-based, human; conditions: Homo sapiens, Huh-7, Huh-7; RT0 Gy, C (regorafenib added 1 h following RT); MTT after 24 h; read-out: IC50 (estimated concentration at which 50% of cells were killed)
pIC50: −log10 of the molar value.

smiles string	pIC50
CNC(=O)c1cc(Oc2ccc(NC(=O)Nc3ccc(Cl)c(C(F)(F)F)c3)c(F)c2)ccn1	5.18

====

Assay: Pharmacokinetics of regorafenib in plasma of freely moving rats with or without RT (HPLC-UV)
Assay type: in vivo, Sprague-Dawley rats
Settings: male, Sprague-Dawley, rat, plasma, po, 16 mg/kg, rat plasma; RT9 Gy × 3 f'x followed by regorafenib 16 mg/kg p.o. × 3 d (sequential)
Description: The Institutional Animal Experimentation Committee of National Yang-Ming University, Taipei, Taiwan, and the Institutional Animal Care and Use Committee (IACUC, approval number 1070523) reviewed and approved the protocol. […] According to the formula used to translate doses from animal to human, human equivalent dose (HED, mg/kg) = animal dose (mg/kg) × animal km/human km, we calculated the daily dose of regorafenib for rats to be 16 (mg/kg/day). […]

smiles string	Tmax
CNC(=O)c1cc(Oc2ccc(NC(=O)Nc3ccc(Cl)c(C(F)(F)F)c3)c(F)c2)ccn1	1.83 h

====

test: Pharmacokinetics of regorafenib in plasma of freely moving rats with or without RT (HPLC-UV); assay type: in vivo, Sprague-Dawley rats; conditions: male, Sprague-Dawley, rat, plasma, po, 16 mg/kg, rat plasma; RT2 Gy × 1 f'x with regorafenib 16 mg/kg p.o. × 1 d (concurrent)

molecule	units label	MRT
CNC(=O)c1cc(Oc2ccc(NC(=O)Nc3ccc(Cl)c(C(F)(F)F)c3)c(F)c2)ccn1 [regorafenib, Regorafenib]	h	10.8

====

assay: Organ distribution of regorafenib in rats with or without RT; type: in vivo, Sprague-Dawley rats; conditions: male, Sprague-Dawley, rat, spleen, oral, 16 mg/kg, rat, 4 h after oral administration; RT9 Gy × 3 f'x followed by regorafenib 16 mg/kg × 3 d (sequential); read-out: Concentration in spleen
observable: concentration at 4 h (ng/g)

smiles string	endpoint result
CNC(=O)c1cc(Oc2ccc(NC(=O)Nc3ccc(Cl)c(C(F)(F)F)c3)c(F)c2)ccn1	230
